These measurements were taken from patent US20220033501A1.

# study.target: T1, monkey TIM-3 protein with hFc tag (cTIM-3-hFc protein) (monkey; human)
# T1 construct: Made in HEK293 cells; also called monkey TIM-3 extracellular domain protein; not shown: human IgG Fc fragment (hFc) of the pCpC vector
# T1 chain: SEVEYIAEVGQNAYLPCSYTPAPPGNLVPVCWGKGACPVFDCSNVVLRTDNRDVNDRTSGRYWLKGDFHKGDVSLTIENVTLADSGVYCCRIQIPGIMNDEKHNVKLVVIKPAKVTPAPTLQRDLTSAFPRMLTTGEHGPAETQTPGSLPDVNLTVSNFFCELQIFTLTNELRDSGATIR
# protocol.notes: ELISA, coated cTIM-3-hFc; antibody 0.0667 nM
Reported values of OD450 for individual entries
Simply state the number, no unit and no words.

{"binder": "39E5H1 (TIM-3 antibody purified from hybridoma, chimeric antibody of Example 2) (antibody, V domains shown, From hybridoma of Harbour H2L2 transgenic mice: human variable regions, rat constant regions) VH: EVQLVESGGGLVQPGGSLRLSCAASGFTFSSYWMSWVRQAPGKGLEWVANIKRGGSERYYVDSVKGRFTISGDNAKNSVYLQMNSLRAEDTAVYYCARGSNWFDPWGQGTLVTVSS VL: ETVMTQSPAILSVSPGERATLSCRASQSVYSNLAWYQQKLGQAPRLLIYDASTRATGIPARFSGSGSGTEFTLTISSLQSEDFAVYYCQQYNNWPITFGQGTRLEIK", "measured.result": 1.98}

Need OD450, item 18D2H2 (TIM-3 antibody purified from hybridoma, chimeric antibody of Example 2) (antibody, V domains shown, From hybridoma of Harbour H2L2 transgenic mice: human variable regions, rat constant regions) VH: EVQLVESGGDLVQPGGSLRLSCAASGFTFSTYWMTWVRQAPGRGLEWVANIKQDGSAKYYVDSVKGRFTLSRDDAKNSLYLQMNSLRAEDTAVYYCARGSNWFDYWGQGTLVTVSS VL: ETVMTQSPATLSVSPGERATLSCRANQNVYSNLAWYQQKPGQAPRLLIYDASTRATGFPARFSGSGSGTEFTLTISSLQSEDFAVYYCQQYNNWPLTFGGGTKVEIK
0.74
